Target: Vasopressin V2 receptor (Rattus norvegicus)
Sequence (Q00788 whole entry): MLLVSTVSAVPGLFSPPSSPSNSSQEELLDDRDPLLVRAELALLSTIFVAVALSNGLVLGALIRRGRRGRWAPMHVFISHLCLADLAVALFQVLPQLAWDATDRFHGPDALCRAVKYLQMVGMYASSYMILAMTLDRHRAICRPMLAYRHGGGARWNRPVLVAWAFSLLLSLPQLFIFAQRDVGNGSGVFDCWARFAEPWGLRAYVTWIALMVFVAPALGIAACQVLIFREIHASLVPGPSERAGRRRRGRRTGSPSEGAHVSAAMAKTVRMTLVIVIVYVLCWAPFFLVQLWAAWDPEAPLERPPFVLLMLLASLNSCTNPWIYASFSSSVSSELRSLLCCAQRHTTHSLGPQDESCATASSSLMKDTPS
Test: Evaluated for binding affinity towards vasopressin V2 receptor in rat
recorded endpoint: IC50

{"compound": "CN(C)CCNC(=O)C1=C[C@@]2(CC1)CCN(C(=O)c1ccc(NC(=O)c3ccccc3F)cc1)c1ccccc1C2 (single isomer, unassigned)", "test result": "444 nM"}

* * *

Measured Cmax by item
Experiment: Maximum plasma concentration was evaluated in rats at an oral dose of 30 mg/kg
Format: ADME, organism-based
Design: dose 30 mg/kg, route oral
Details: rat
recorded endpoint: Cmax (nM)

{"compound": "CN(C)CCNC(=O)C1=C[C@@]2(CC1)CCN(C(=O)c1ccc(NC(=O)c3ccccc3F)cc1)c1ccccc1C2 (single isomer, unassigned)", "recorded endpoint": "Cmax", "test result": 1100}
{"compound": "CN(C)CCNC(=O)C1=C[C@]2(CC1)CCN(C(=O)c1ccc(NC(=O)c3ccccc3-c3ccccc3)cc1)c1ccccc1C2", "recorded endpoint": "Cmax", "test result": 790}

* * *

Experiment: Partition coefficient (logP)
Type: physicochemical
Conditions: octanol/water

{"compound": "CN(C)CCNC(=O)C1=C[C@@]2(CC1)CCN(C(=O)c1ccc(NC(=O)c3ccccc3F)cc1)c1ccccc1C2 (single isomer, unassigned)", "logP": 2.45}
{"compound": "CN(C)CCNC(=O)C1=C[C@]2(CC1)CCN(C(=O)c1ccc(NC(=O)c3ccccc3-c3ccccc3)cc1)c1ccccc1C2", "logP": 3.63}

* * *

Assay: Time to reach maximum plasma concentration was evaluated at an oral dose of 30 mg/kg
Type: ADME, organism-based
Design: dose 30 mg/kg, route oral
Conditions: rat
We begin with a simple list: items and their reported Tmax.
recorded endpoint: Tmax (h)

{"compound": "CN(C)CCNC(=O)C1=C[C@@]2(CC1)CCN(C(=O)c1ccc(NC(=O)c3ccccc3F)cc1)c1ccccc1C2 (single isomer, unassigned)", "recorded endpoint": "Tmax", "test result": 4.67}
{"compound": "CN(C)CCNC(=O)C1=C[C@]2(CC1)CCN(C(=O)c1ccc(NC(=O)c3ccccc3-c3ccccc3)cc1)c1ccccc1C2", "recorded endpoint": "Tmax", "test result": 4}

* * *

Recorded pIC50 for the following compounds
Target: UniProt:P37288
Assay: Evaluated for intracellular calcium mobilization in HEK293 cells transfected to express human vasopressin V1a receptor
Type: functional, cell-based
pIC50: −log10 of the molar value.
recorded endpoint: pIC50

{"compound": "O=C(O)CNC(=O)C1=CC2(CC1)CCN(C(=O)c1ccc(NC(=O)c3ccccc3-c3ccccc3)cc1)c1ccccc1C2 (stereo not given)", "test result": 7.11}
{"compound": "O=C(NCCN1CCCC1)C1=CC2(CC1)CCN(C(=O)c1ccc(NC(=O)c3ccccc3F)cc1)c1ccccc1C2 (stereo not given)", "test result": 6.81}
{"compound": "Cc1ccc(F)cc1C(=O)Nc1ccc(C(=O)N2CCC3(C=C(C(=O)NCCN4CCCC4)CC3)Cc3ccccc32)cc1 (stereo not given)", "test result": 7.54}
{"compound": "CN(C)CCNC(=O)C1=C[C@@]2(CC1)CCN(C(=O)c1ccc(NC(=O)c3ccccc3F)cc1)c1ccccc1C2 (single isomer, unassigned)", "test result": 7.11}
{"compound": "CN(C)CCNC(=O)C1=C[C@]2(CC1)CCN(C(=O)c1ccc(NC(=O)c3ccccc3-c3ccccc3)cc1)c1ccccc1C2", "test result": 7.35}
{"compound": "COC(=O)CNC(=O)C1=CC2(CC1)CCN(C(=O)c1ccc(NC(=O)c3cc(F)ccc3C)cc1)c1ccccc1C2 (stereo not given)", "test result": 6.87}
{"compound": "Cc1ccc(F)cc1C(=O)Nc1ccc(C(=O)N2CCC3(C=C(C(=O)NCCN4CCCCC4)CC3)Cc3ccccc32)cc1 (stereo not given)", "test result": 7.32}
{"compound": "CN(C)CCCNC(=O)C1=CC2(CC1)CCN(C(=O)c1ccc(NC(=O)c3ccccc3-c3ccccc3)cc1)c1ccccc1C2 (stereo not given)", "test result": 7.54}
{"compound": "Cc1ccc(F)cc1C(=O)Nc1ccc(C(=O)N2CCC3(C=C(C(=O)NCCCN(C)C)CC3)Cc3ccccc32)cc1 (stereo not given)", "test result": 8.40}
{"compound": "Cc1ccc(F)cc1C(=O)Nc1ccc(C(=O)N2CCC3(C=C(C(=O)NCCN(C)C)CC3)Cc3ccccc32)cc1 (stereo not given)", "test result": 7.19}

* * *

Biological target: Vasopressin V1a receptor (Homo sapiens)
Experiment: Binding affinity measured by inhibition of 3[H] AVP binding to cloned human vasopressin V1a receptor
pIC50: −log10 of the molar value.
Param threshold (8) applies to pIC50; output condition met when value >= threshold, condition not met when value < threshold.

{"molecule": "CN(C)CCNC(=O)C1=C[C@]2(CC1)CCN(C(=O)c1ccc(NC(=O)c3ccccc3-c3ccccc3)cc1)c1ccccc1C2", "discrete label": "condition met"}
{"molecule": "Cc1ccc(F)cc1C(=O)Nc1ccc(C(=O)N2CCC3(C=C(C(=O)NCCN4CCCC4)CC3)Cc3ccccc32)cc1 (centres undefined)", "discrete label": "condition not met"}
{"molecule": "CN(C)CCNC(=O)C1=C[C@@]2(CC1)CCN(C(=O)c1ccc(NC(=O)c3ccccc3F)cc1)c1ccccc1C2 (single isomer, unassigned)", "discrete label": "condition met"}
{"molecule": "O=C(NCCN1CCOCC1)C1=CC2(CC1)CCN(C(=O)c1ccc(NC(=O)c3ccccc3F)cc1)c1ccccc1C2 (centres undefined)", "discrete label": "condition met"}
{"molecule": "O=C(O)CNC(=O)C1=CC2(CC1)CCN(C(=O)c1ccc(NC(=O)c3ccccc3-c3ccccc3)cc1)c1ccccc1C2 (centres undefined)", "discrete label": "condition not met"}
{"molecule": "CN(C)CCCNC(=O)C1=CC2(CC1)CCN(C(=O)c1ccc(NC(=O)c3ccccc3-c3ccccc3)cc1)c1ccccc1C2 (centres undefined)", "discrete label": "condition met"}

* * *

Molecular target: Vasopressin V1a receptor (Homo sapiens, UniProt P37288)
Sequence (P37288 whole entry): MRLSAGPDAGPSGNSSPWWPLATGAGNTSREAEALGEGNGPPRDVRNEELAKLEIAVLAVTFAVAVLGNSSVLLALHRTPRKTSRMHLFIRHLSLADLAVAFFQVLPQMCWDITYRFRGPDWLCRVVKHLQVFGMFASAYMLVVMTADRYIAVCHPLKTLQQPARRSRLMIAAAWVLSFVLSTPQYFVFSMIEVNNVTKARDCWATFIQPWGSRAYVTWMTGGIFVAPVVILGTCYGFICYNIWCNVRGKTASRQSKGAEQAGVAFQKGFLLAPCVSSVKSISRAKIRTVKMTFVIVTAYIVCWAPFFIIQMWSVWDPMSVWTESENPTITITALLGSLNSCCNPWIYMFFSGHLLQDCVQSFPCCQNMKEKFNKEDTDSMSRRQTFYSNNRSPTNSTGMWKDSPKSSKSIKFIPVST
Assay: Evaluated for intracellular calcium mobilization in HEK- 293 cells transfected to express human vasopressin V1a receptor (Compound 7o)
Assay type: functional, cell-based, HEK293
recorded endpoint: IC50 (nM)

{"compound": "Cc1ccc(F)cc1C(=O)Nc1ccc(C(=O)N2CCC3(C=C(C(=O)NCCN4CCCCC4)CC3)Cc3ccccc32)cc1 (stereo unspecified)", "test result": 71}

* * *

Test: Area under the curve was evaluated at an intravenous dose of 3 mg/kg
Format: ADME, organism-based
Set-up: dose 3 mg/kg, route intravenous
Details: rat, in vivo

{"molecule": "CN(C)CCNC(=O)C1=C[C@@]2(CC1)CCN(C(=O)c1ccc(NC(=O)c3ccccc3F)cc1)c1ccccc1C2 (single isomer, unassigned)", "AUC, nM·h": 1680}
{"molecule": "CN(C)CCNC(=O)C1=C[C@]2(CC1)CCN(C(=O)c1ccc(NC(=O)c3ccccc3-c3ccccc3)cc1)c1ccccc1C2", "AUC, nM·h": 2060}

* * *

Assay: Solubility measured at pH 2
Type: physicochemical
Conditions: buffer
Each item that follows carries a reported solubility.
recorded endpoint: solubility (µg/mL)

{"molecule": "CN(C)CCNC(=O)C1=C[C@]2(CC1)CCN(C(=O)c1ccc(NC(=O)c3ccccc3-c3ccccc3)cc1)c1ccccc1C2", "recorded endpoint": "solubility", "test result": 160}
{"molecule": "CN(C)CCNC(=O)C1=C[C@@]2(CC1)CCN(C(=O)c1ccc(NC(=O)c3ccccc3F)cc1)c1ccccc1C2 (single isomer, unassigned)", "recorded endpoint": "solubility", "test result": 320}

* * *

Target: Vasopressin V2 receptor (Homo sapiens, UniProt P30518)
Sequence (P30518 whole entry): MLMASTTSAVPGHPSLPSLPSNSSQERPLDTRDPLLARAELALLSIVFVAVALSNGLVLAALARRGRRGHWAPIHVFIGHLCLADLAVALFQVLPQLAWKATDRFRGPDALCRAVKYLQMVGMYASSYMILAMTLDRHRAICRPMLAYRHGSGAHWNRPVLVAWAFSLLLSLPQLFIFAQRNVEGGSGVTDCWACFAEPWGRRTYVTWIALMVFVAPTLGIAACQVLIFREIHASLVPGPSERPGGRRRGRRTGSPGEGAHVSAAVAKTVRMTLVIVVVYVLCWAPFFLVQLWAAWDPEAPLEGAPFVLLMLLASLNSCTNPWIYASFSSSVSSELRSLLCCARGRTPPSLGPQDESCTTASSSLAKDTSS
Assay: Evaluated for accumulation of cAMP in transfected HEK293 cells expressing human vasopressin V2 receptor
Assay type: functional, cell-based

{"molecule": "O=C(NCCO)C1=CC2(CC1)CCN(C(=O)c1ccc(NC(=O)c3ccccc3F)cc1)c1ccccc1C2 (stereo not drawn)", "system under test": "Vasopressin V2 receptor (Homo sapiens, UniProt P30518)", "result operator": ">", "IC50 / nM": 1000}
{"molecule": "CN(C)CCNC(=O)C1=CC2(CC1)CCN(C(=O)c1ccc(NC(=O)c3ccccc3F)cc1)c1ccccc1C2 (stereo not drawn)", "system under test": "Vasopressin V2 receptor (Homo sapiens, UniProt P30518)", "result operator": ">", "IC50 / nM": 1000}
{"molecule": "O=C(NCCN1CCCC1)C1=CC2(CC1)CCN(C(=O)c1ccc(NC(=O)c3ccccc3F)cc1)c1ccccc1C2 (stereo not drawn)", "system under test": "Vasopressin V2 receptor (Homo sapiens, UniProt P30518)", "result operator": ">", "IC50 / nM": 1000}
{"molecule": "CN(C)CCNC(=O)C1=CC2(CC1)CCN(C(=O)c1ccc(NC(=O)c3ccccc3-c3ccccc3)cc1)c1ccccc1C2 (stereo not drawn)", "system under test": "Vasopressin V2 receptor (Homo sapiens, UniProt P30518)", "result operator": "=", "IC50 / nM": 100}
{"molecule": "CN(C)CCCNC(=O)C1=CC2(CC1)CCN(C(=O)c1ccc(NC(=O)c3ccccc3-c3ccccc3)cc1)c1ccccc1C2 (stereo not drawn)", "system under test": "Vasopressin V2 receptor (Homo sapiens, UniProt P30518)", "result operator": "=", "IC50 / nM": 20}
{"molecule": "O=C(NCCO)C1=CC2(CC1)CCN(C(=O)c1ccc(NC(=O)c3ccccc3-c3ccccc3)cc1)c1ccccc1C2 (stereo not drawn)", "system under test": "Vasopressin V2 receptor (Homo sapiens, UniProt P30518)", "result operator": "=", "IC50 / nM": 170}
{"molecule": "COC(=O)CNC(=O)C1=CC2(CC1)CCN(C(=O)c1ccc(NC(=O)c3cc(F)ccc3C)cc1)c1ccccc1C2 (stereo not drawn)", "system under test": "Vasopressin V2 receptor (Homo sapiens, UniProt P30518)", "result operator": "=", "IC50 / nM": 440}
{"molecule": "O=C(NCCN1CCCCC1)C1=CC2(CC1)CCN(C(=O)c1ccc(NC(=O)c3ccccc3F)cc1)c1ccccc1C2 (stereo not drawn)", "system under test": "Vasopressin V2 receptor (Homo sapiens, UniProt P30518)", "result operator": ">", "IC50 / nM": 1000}
